Origin of measurements: patent US20150086555A1

Target: recombinant homotrimeric HA A/Anhui/1/05 H5N1 (Influenza A virus A/Anhui/1/2005(H5N1))
Experiment: protein microarray, purified IgG, trimeric HA
Details: remark: other sources report otherwise
Measured Trimeric HA Binding: RLU, listed per entry.
Report the figure in RLU without appending any unit label.

1) TCN-555 (5246_L16) (antibody, V domains shown) VH: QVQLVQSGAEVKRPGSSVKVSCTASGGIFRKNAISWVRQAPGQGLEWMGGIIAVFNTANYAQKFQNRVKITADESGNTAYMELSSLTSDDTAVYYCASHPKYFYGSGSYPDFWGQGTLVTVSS VL: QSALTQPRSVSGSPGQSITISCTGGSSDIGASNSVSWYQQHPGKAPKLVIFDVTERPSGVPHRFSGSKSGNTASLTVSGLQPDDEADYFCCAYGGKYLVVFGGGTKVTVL    6630
2) TCN-540 (5060_F05) (antibody, V domains shown) VH: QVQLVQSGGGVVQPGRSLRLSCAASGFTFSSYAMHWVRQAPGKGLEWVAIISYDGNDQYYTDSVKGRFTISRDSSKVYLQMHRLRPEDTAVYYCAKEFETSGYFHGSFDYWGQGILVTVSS VL: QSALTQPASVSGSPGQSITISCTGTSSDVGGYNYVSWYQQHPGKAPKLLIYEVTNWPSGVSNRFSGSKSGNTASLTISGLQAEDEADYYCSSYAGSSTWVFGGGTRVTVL    769
3) TCN-550 (5096_F06) (antibody, V domains shown) VH: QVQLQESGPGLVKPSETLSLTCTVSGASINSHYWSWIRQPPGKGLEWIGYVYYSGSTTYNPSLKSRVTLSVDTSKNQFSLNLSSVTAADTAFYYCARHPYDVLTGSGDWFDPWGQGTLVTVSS VL: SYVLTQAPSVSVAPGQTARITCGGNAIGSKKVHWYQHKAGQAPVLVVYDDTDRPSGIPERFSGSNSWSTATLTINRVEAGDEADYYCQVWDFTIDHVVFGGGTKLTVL    4780

// moving on: another record for Trimeric HA Binding: RLU
Q: Can you share its Trimeric HA Binding: RLU? I mean this binder: TCN-527 (5086_C06) (antibody, V domains shown) VH: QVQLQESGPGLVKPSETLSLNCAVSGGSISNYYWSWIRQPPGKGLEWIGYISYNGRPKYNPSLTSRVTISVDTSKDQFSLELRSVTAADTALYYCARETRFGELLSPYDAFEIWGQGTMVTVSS VL: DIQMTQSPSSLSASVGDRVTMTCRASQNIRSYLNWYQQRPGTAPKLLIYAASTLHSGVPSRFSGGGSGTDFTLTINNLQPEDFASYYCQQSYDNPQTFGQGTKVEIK
Ans: 24700
